System: MDR1
Assay: Apparent permeability in MDCKII expressing MDR1 cells across apical to basolateral side
Type: ADME, cell-based, Canis lupus familiaris, MDCK-II
Settings: dog, MDCK-MDR1; read-out: permeability

COMPOUND STRUCTURE STRING: O[C@@H]1CCCC[C@H]1CNc1cc(Br)cc2[nH]ncc12
Papp A→B: 13.5 ×10⁻⁶ cm/s

====

Listed below: IC50 values for each entry.
Target: Indoleamine 2,3-dioxygenase 1 (Homo sapiens, UniProt P14902)
Sequence (P14902 whole entry): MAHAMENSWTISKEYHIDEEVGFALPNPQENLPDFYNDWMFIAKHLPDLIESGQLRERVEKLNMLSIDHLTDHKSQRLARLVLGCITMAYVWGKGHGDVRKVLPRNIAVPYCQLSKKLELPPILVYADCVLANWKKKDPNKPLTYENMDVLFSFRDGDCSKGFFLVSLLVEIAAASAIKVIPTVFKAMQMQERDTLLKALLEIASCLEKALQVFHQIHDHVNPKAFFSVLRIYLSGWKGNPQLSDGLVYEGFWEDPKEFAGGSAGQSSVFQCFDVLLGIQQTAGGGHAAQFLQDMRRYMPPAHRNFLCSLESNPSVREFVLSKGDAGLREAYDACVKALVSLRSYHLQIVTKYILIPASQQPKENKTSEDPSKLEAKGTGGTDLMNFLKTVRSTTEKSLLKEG
Assay: Inhibition of human IDO1 by Cornhish-Bowden method
REPORTED PROPERTY: IC50 (µM)

COMPOUND STRUCTURE STRING: Oc1ccc(CNc2cc(Br)cc3[nH]ncc23)cc1
TARGET UNDER TEST: Indoleamine 2,3-dioxygenase 1 (Homo sapiens, UniProt P14902)
TEST VALUE: 5.64

COMPOUND STRUCTURE STRING: Nc1cc(Br)cc2[nH]ncc12
TARGET UNDER TEST: Indoleamine 2,3-dioxygenase 1 (Homo sapiens, UniProt P14902)
TEST VALUE: 8.49

====

Target: Tryptophan 2,3-dioxygenase (Homo sapiens)
Sequence (P48775 whole entry): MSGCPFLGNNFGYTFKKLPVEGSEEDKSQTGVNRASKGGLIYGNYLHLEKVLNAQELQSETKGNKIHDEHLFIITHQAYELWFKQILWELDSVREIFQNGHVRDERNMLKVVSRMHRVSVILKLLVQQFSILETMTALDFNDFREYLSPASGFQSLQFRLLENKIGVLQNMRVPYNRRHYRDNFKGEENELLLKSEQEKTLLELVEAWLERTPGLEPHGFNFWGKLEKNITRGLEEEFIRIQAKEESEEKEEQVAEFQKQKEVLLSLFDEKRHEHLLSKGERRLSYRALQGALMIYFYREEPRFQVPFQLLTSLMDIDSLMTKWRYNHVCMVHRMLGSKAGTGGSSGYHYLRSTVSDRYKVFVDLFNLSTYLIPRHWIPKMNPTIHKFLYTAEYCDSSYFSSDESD
Mark True only when IC50 stays strictly below 7 µM. Values equal to the cut-off are False.

MOLECULE: O[C@@H]1CCCC[C@H]1CNc1c(Br)ccc2[nH]ncc12
TARGET UNDER TEST: Tryptophan 2,3-dioxygenase (Homo sapiens)
LABEL CLASS: False
//
MOLECULE: Brc1cc(NC[C@H]2CCCN2)c2cn[nH]c2c1
TARGET UNDER TEST: Tryptophan 2,3-dioxygenase (Homo sapiens)
LABEL CLASS: False
//
MOLECULE: NS(=O)(=O)NCCNc1nonc1C(=NO)Nc1ccc(F)c(Br)c1
TARGET UNDER TEST: Tryptophan 2,3-dioxygenase (Homo sapiens)
LABEL CLASS: False
//
MOLECULE: O/N=C(\CNc1cc(Br)cc2[nH]ncc12)c1ccc(O)cc1
TARGET UNDER TEST: Tryptophan 2,3-dioxygenase (Homo sapiens)
LABEL CLASS: False
//
MOLECULE: Brc1cc(NCC2CCCCC23OCCO3)c2cn[nH]c2c1 (configuration not stated)
TARGET UNDER TEST: Tryptophan 2,3-dioxygenase (Homo sapiens)
LABEL CLASS: True
//
MOLECULE: COC(=O)c1cc(NC[C@@H]2CCCC[C@H]2O)c2cn[nH]c2c1
TARGET UNDER TEST: Tryptophan 2,3-dioxygenase (Homo sapiens)
LABEL CLASS: False
//
MOLECULE: Cl[C@H]1CCCC[C@H]1CNc1cc(Br)cc2[nH]ncc12
TARGET UNDER TEST: Tryptophan 2,3-dioxygenase (Homo sapiens)
LABEL CLASS: True
//
MOLECULE: OC(CNc1cc(Br)cc2[nH]ncc12)C1CCCCC1 (configuration not stated)
TARGET UNDER TEST: Tryptophan 2,3-dioxygenase (Homo sapiens)
LABEL CLASS: False
//
MOLECULE: OC(CNc1cc(Br)cc2[nH]ncc12)c1cccc(Cl)c1 (configuration not stated)
TARGET UNDER TEST: Tryptophan 2,3-dioxygenase (Homo sapiens)
LABEL CLASS: True
//
MOLECULE: O[C@H]1CCCC[C@@H]1NCc1cc(Br)cc2[nH]ncc12
TARGET UNDER TEST: Tryptophan 2,3-dioxygenase (Homo sapiens)
LABEL CLASS: False
//
MOLECULE: CC(=O)O[C@@H]1CCCC[C@H]1CNc1cc(Br)cc2[nH]ncc12
TARGET UNDER TEST: Tryptophan 2,3-dioxygenase (Homo sapiens)
LABEL CLASS: True
//
MOLECULE: O[C@H]1CCCC[C@@H]1CNc1cc(Br)cc2[nH]ncc12
TARGET UNDER TEST: Tryptophan 2,3-dioxygenase (Homo sapiens)
LABEL CLASS: True
//
MOLECULE: OCC(Nc1cc(Br)cc2[nH]ncc12)C1CCCCC1 (configuration not stated)
TARGET UNDER TEST: Tryptophan 2,3-dioxygenase (Homo sapiens)
LABEL CLASS: False
//
MOLECULE: O=C(CNc1cc(Br)cc2[nH]ncc12)c1ccc(O)cc1
TARGET UNDER TEST: Tryptophan 2,3-dioxygenase (Homo sapiens)
LABEL CLASS: False
//
MOLECULE: Oc1ccc(CNc2cc(Br)cc3[nH]ncc23)cc1
TARGET UNDER TEST: Tryptophan 2,3-dioxygenase (Homo sapiens)
LABEL CLASS: True
//
MOLECULE: O[C@@H]1CCCC[C@H]1CNc1c(Br)cc(Br)c2[nH]ncc12
TARGET UNDER TEST: Tryptophan 2,3-dioxygenase (Homo sapiens)
LABEL CLASS: False
//
MOLECULE: Cc1cc(NC[C@@H]2CCCC[C@H]2O)c2cn[nH]c2c1
TARGET UNDER TEST: Tryptophan 2,3-dioxygenase (Homo sapiens)
LABEL CLASS: True
